Assay: Bioavailability in C57BL/6 mouse at 1 mg/kg, iv and 3 mg/kg, ip measured upto 24 hrs by HPLC-MS analysis
Assay type: ADME, organism-based
Conditions: in vivo
readout type: bioavailability (%)

| chemical smiles | bioavailability / % |
| --- | --- |
| C[C@@H]1COCCN1c1cc(N2CCOC[C@@H]2C)nc2[nH]c(-c3cscn3)nc12 | 112 |
| C[C@@H]1COCCN1c1cc(N2CCOC[C@@H]2C)nc2[nH]c(-c3ccccn3)nc12 | 98 |

* * *

Assay: Apparent permeability across apical to basolateral side in MDCK-MDR1 cells
Format: ADME, cell-based, Canis lupus familiaris
Details: dog
readout type: Papp A→B (×10⁻⁶ cm/s)

| chemical smiles | Papp A→B / ×10⁻⁶ cm/s |
| --- | --- |
| C[C@@H]1COCCN1c1cc(N2C3CCC2COC3)nc2[nH]c(-c3ccccn3)nc12 | 9.57 |
| C[C@@H]1COCCN1c1nc(N2CCOC[C@@H]2C)nc2sc(-c3cc[nH]n3)nc12 | 27.4 |
| C[C@@H]1COCCN1c1cc(N2CCOC[C@@H]2C)nc2[nH]c(-c3cscn3)nc12 | 14 |
| C[C@@H]1COCCN1c1cc(N2CCOC[C@@H]2C)nc2[nH]c(-c3cc[nH]n3)nc12 | 15.9 |

P. C[C@@H]1COCCN1c1cc(N2CCOC[C@@H]2C)nc2[nH]c(-c3nccs3)nc12
Q. C[C@@H]1COCCN1c1cc(N2CCOC[C@@H]2C)nc2[nH]c(-c3ccccn3)nc12
R. C[C@@H]1COCCN1c1cc(N2CCOC[C@@H]2C)nc2[nH]c(-c3cc(O)ccc3F)nc12
Lookup: Sort the molecules on Papp A→B; start with the lowest figure. Give the order by naming the labels one after another as requested.
Found: P, R, Q
(P: 12.7 ×10⁻⁶ cm/s, R: 25.6 ×10⁻⁶ cm/s, Q: 41.5 ×10⁻⁶ cm/s)

src = ChEMBL document CHEMBL5331134
